# targetEntity: human PTPN1 (1-435) (Homo sapiens (Human))
# Sequence (P18031 whole entry): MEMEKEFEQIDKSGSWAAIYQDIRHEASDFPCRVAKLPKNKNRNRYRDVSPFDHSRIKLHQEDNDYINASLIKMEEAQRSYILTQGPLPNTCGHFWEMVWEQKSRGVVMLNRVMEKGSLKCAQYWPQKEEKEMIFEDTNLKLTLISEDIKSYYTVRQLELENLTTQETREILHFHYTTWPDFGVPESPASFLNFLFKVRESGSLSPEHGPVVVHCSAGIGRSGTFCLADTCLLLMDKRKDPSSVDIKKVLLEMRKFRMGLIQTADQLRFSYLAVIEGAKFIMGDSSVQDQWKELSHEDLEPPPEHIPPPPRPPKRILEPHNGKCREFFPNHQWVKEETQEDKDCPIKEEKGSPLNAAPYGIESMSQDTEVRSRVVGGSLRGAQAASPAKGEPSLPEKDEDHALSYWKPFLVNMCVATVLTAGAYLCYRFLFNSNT
pIC50: −log10 of the molar value.
// no (0) strictly below 7 in pIC50; yes (1) otherwise

smilesrepr=NC(=O)c1cc(OCCC(F)(F)C(F)(F)C(F)F)c2sc(C(F)(F)P(=O)(O)O)c(Br)c2c1 targetentity="human PTPN1 (1-435) (Homo sapiens (Human))" assignedlabel="yes (1)"

-- ask Could you tell me if the measured pIC50 of NC(=O)COc1cc(C(N)=O)cc2c(Br)c(C(F)(F)P(=O)(O)O)sc12 reaches 7 or more?
-- reply no (0)

-- ask Could you tell me if the measured pIC50 of N#Cc1ccc2cc(C(F)(F)P(=O)(O)O)sc2c1Br reaches 7 or more?
-- reply no (0)

-- ask Could you tell me if the measured pIC50 of NS(=O)(=O)CCCOc1cc(-c2nc[nH]n2)cc2c(Br)c(C(F)(F)P(=O)(O)O)sc12 reaches 7 or more?
-- reply yes (1)

-- ask Could you tell me if the measured pIC50 of O=C(NC1CC(F)(F)C1)c1ccc2sc(C(F)(F)P(=O)(O)O)c(Br)c2c1 reaches 7 or more?
-- reply no (0)

-- ask Could you tell me if the measured pIC50 of CNC(=O)c1cc(OCCCC(C)(F)F)c2sc(C(F)(F)P(=O)(O)O)c(Br)c2c1 reaches 7 or more?
-- reply yes (1)

---

# targetEntity: human PTPN2 (1-387) (Homo sapiens (Human))
# Sequence (P17706 other isoform, or with tags, fused parts or gaps): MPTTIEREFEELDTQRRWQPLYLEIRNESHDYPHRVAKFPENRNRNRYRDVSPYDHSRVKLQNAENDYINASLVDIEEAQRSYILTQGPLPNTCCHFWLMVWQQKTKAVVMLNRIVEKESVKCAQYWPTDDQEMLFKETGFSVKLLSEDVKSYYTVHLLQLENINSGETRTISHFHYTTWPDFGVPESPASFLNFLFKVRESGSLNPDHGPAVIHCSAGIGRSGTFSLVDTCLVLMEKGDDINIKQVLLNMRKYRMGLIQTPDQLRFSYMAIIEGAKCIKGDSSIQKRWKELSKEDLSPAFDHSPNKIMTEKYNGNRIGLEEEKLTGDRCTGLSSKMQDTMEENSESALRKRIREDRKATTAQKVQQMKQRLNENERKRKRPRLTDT
pIC50: −log10 of the molar value.
// not met strictly below 6 in pIC50; met otherwise

-- ask Could you tell me if the measured pIC50 of CCC(NC(=O)c1ccc2sc(C(F)(F)P(=O)(O)O)c(Br)c2c1)c1cccnc1 (stereo not shown) [Compound 177] reaches 6 or more?
-- reply not met

---

# targetEntity: human PTPN1 (1-435) (Homo sapiens (Human))
propertyLabel: IC50 (nM)
Express it in nM; write the number only.

molecule="NC(=O)c1cc(OCCC2CCCS2(=O)=O)c2sc(C(F)(F)P(=O)(O)O)c(Br)c2c1 (single isomer, unassigned) [Compound 372]" endpointunit=nM quantitativereadout=18.2
molecule="CS(=O)(=O)c1ccc(COc2cc(C(N)=O)cc3c(Br)c(C(F)(F)P(=O)(O)O)sc23)c(F)c1 [Compound 389]" endpointunit=nM quantitativereadout=14.1
molecule="NC(=O)c1cc(OCC2C(F)(F)C23CCC3)c2sc(C(F)(F)P(=O)(O)O)c(Br)c2c1 (stereo not shown) [Compound 294]" endpointunit=nM quantitativereadout=38
molecule="CNC(=O)c1cc(OCCCS(N)(=O)=O)c2sc(C(F)(F)P(=O)(O)O)c(C)c2c1 [Compound 433]" endpointunit=nM quantitativereadout=29.3
molecule="O=C(NC1CCC(F)(F)CC1)c1ccc2sc(C(F)(F)P(=O)(O)O)c(Br)c2c1 [Compound 36]" endpointunit=nM quantitativereadout=2750

-- ask Report IC50 on human PTPN1 (1-435) (Homo sapiens (Human)) for this entry: O=P(O)(O)C(F)(F)c1sc2ccc(OCCc3ccccc3)cc2c1Br [Compound 221]
-- reply 3460

-- ask Report IC50 on human PTPN1 (1-435) (Homo sapiens (Human)) for this entry: O=C(NCc1c[nH]nn1)c1cc(Cl)c2sc(C(F)(F)P(=O)(O)O)c(Br)c2c1 [Compound 159]
-- reply 251
